// reported IC50 for each item listed
Molecular target: PI3Kδ (p110δ/p85α)(h) (Homo sapiens)
Sequence (O00329 whole entry): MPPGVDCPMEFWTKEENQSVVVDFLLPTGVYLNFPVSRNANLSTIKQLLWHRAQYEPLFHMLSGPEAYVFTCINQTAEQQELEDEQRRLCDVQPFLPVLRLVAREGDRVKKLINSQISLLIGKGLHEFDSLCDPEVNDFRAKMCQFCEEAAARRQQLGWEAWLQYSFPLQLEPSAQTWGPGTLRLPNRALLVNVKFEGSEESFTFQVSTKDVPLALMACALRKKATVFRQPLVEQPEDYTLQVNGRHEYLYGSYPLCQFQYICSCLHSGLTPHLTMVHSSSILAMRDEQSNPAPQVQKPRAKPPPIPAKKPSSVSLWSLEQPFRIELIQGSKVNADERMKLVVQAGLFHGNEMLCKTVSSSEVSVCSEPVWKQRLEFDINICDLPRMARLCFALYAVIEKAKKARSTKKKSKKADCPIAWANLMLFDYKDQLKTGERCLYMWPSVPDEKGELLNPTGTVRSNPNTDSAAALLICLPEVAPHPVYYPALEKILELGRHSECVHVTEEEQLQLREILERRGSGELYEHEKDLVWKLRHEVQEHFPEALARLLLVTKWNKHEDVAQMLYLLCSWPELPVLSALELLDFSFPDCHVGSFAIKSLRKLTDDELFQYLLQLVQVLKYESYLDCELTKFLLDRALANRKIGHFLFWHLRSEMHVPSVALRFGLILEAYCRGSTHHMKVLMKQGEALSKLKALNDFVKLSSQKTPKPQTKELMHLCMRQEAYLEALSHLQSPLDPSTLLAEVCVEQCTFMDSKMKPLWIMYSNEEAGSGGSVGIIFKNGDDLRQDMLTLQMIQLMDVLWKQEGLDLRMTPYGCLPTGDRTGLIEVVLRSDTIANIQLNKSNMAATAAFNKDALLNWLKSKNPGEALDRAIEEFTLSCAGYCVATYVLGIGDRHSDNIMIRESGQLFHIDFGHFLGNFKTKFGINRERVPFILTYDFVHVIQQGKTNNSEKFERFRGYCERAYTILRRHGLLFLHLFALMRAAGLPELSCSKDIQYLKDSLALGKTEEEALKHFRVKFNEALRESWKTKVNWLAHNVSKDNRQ
Sequence (P27986 whole entry partner): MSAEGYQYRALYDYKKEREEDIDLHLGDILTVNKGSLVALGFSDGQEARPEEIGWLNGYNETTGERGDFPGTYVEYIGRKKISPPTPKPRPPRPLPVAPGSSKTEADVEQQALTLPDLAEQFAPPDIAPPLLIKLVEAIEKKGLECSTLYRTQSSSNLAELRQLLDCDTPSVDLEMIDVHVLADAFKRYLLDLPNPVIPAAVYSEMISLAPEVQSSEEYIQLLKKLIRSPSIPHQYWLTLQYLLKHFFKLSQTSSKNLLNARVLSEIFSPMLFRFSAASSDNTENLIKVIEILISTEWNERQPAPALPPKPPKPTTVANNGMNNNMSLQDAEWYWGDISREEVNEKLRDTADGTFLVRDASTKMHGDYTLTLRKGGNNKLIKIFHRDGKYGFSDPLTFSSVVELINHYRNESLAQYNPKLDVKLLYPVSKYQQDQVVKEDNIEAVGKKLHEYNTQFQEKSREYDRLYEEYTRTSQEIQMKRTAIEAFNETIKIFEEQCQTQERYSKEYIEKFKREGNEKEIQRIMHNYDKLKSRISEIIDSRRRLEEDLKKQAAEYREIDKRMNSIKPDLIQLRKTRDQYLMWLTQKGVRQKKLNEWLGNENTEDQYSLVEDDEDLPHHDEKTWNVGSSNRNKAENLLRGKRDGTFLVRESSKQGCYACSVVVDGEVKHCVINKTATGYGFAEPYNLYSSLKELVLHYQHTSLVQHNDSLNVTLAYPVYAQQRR
Assay: Assay for phosphatidylinositol 3-kinase delta (PI3Kδ) activity, PI3K-HTRF kit
Type: biochemical
Conditions: TR-FRET; enzyme 0.725 μg/ml, 10 μM PIP2, 10 μM ATP
Experimental: [The source words this procedure for another target and says it was used here with some conditions changed.] The compounds of the present invention were assayed for the activity of phosphatidylinositol 3-kinase gamma (PI3Kγ) by using a PI3K enzyme-homogenous time resolved fluorescence (PI3K-HTRF) kit, which is available from Upstate (Millipore Co, Billerica, Mass., USA). […]
Observable: IC50 (nM)

{"columns": ["Structure as smiles", "Test system", "Result operator", "Recorded number"],
 "data": [
  ["COC(=O)c1cc(F)cc(-c2cncc3cc(/C=C4\\SC(=S)NC4=O)oc23)c1", "PI3Kδ (p110δ/p85α)(h) (Homo sapiens)", ">", 10000],
  ["Cc1cc(-c2cncc3cc(/C=C4\\SC(=S)NC4=O)oc23)cc(C)c1OC(C)C", "PI3Kδ (p110δ/p85α)(h) (Homo sapiens)", ">", 10000],
  ["CC(C)c1ccccc1C#Cc1cncc2cc(/C=C3\\SC(=S)NC3=O)oc12", "PI3Kδ (p110δ/p85α)(h) (Homo sapiens)", ">", 10000],
  ["COC(=O)c1cccc(C#Cc2cncc3cc(/C=C4\\SC(=O)NC4=O)oc23)c1", "PI3Kδ (p110δ/p85α)(h) (Homo sapiens)", "=", 1270],
  ["COc1ncc(-c2cncc3cc(/C=C4\\SC(=S)NC4=O)oc23)cc1C", "PI3Kδ (p110δ/p85α)(h) (Homo sapiens)", ">", 10000],
  ["COc1ccc(-c2cncc3cc(/C=C4\\SC(=O)NC4=O)oc23)cc1OC", "PI3Kδ (p110δ/p85α)(h) (Homo sapiens)", "=", 37],
  ["CN(C)S(=O)(=O)c1ccc(-c2cncc3cc(/C=C4\\SC(=S)NC4=O)oc23)cc1F", "PI3Kδ (p110δ/p85α)(h) (Homo sapiens)", ">", 10000],
  ["O=C1NC(=O)/C(=C/c2cc3cncc(C(=O)NC4CCCCC4)c3o2)S1", "PI3Kδ (p110δ/p85α)(h) (Homo sapiens)", "=", 1140],
  ["O=C1NC(=O)/C(=C/c2cc3cncc(-c4ccc(F)cc4F)c3o2)S1", "PI3Kδ (p110δ/p85α)(h) (Homo sapiens)", "=", 117],
  ["Cn1cc(-c2cncc3cc(/C=C4\\SC(=O)NC4=O)oc23)cn1", "PI3Kδ (p110δ/p85α)(h) (Homo sapiens)", ">", 10000]
]}
